Experiment: Dissociation constant, pKa of the compound
Format: physicochemical
observed property: pKa

{"compound": "Cn1cc(-c2cc3nccnc3c(OCC3CNCC(F)(F)C3)n2)cn1 (racemic)", "observed property": "pKa", "measurement": 7}
{"compound": "Cn1cc(-c2cc3nccnc3c(OCC3CNCCC3(F)F)n2)cn1 (racemic)", "observed property": "pKa", "measurement": 7.7}
{"compound": "Cn1cc(-c2cc3nccnc3c(NCC3CNCC(F)(F)C3)n2)cn1 (racemic)", "observed property": "pKa", "measurement": 6.9}

* * *

Target: Tyrosine-protein kinase SYK (Homo sapiens, UniProt P43405)
Assay: Inhibition of SYK in human B cells assessed as suppression of anti-IgM-induced CD69 surface expression preincubated for 30 mins followed by anti-IgM addition measured after 3.5 hrs by flow cytometric analysis
Format: cell-based
pIC50: −log10 of the molar value.
observed property: pIC50

{"compound": "CN(C)c1ccc(-c2cc3nccnc3c(NC[C@H]3CNCCC3(F)F)n2)cn1", "pIC50": 5.80}

A. Cc1ccc(-c2cc3ncncc3c(NC[C@H]3CCCNC3)n2)cc1
B. CN(C)c1ccc(-c2cc3nccnc3c(NC[C@H]3CCCNC3)n2)cn1
C. CN(C)c1ccc(-c2cc3nccnc3c(OC[C@@H]3CCCNC3)n2)cn1
D. CN(C)c1ccc(-c2cc3nccnc3c(CCC3CCCNC3)n2)cn1 (racemic)
In this exercise, place the 4 compounds in ascending sequence of their recorded pIC50. List the labels according to the requested ordering. A, D, C, B
(A: 5.40, D: 6.00, C: 6.30, B: 6.50)

A. Cc1ccc(-c2cc3nc[nH]c(=O)c3c(NC[C@H]3CCCNC3)n2)cc1
B. Cc1ccc(-c2cc3ncccc3c(NC[C@H]3CCCNC3)n2)cc1
Looking at A and B , which one comes out lower in pIC50 terms? Pick one; state its label. A
(A: 5.40, B: 6.10)
